# EC50 per record follows
# TARGET SYSTEM: SARS-CoV RBD (SARS-CoV, UniProt P59594)
# PROCEDURE TEXT: ELISA

C114 (antibody, V domains shown) VH: QVQLVESGGGLIQPGGSLKLSCVVSGFTVSKNYISWVRQAPGKGLEWVSVIFAGGSTFYADSVKGRFAISRDNSNNTLFLQMNSLRVEDTAIYYCARGDGELFFDQWGQGTLVTVSS VL: QSVLTQPPSVSGAPGQRVTISCTGTSSNIGAGYDVHWYQQLPGRAPKVLISGNNIRPSEVPDRFSGSRSGTSASLAITSLQPEDEAQYYCQSYDSSLYAVFGGGTKLTVL :: > 1 µg/mL
C116 (antibody, V domains shown) VH: QVQLVESGGGVVQPGRSLRLSCAASGFTYSTYAMHWVRQAPGKGLEWVAFISYDGSNKYYADSVKGRFTISRDNSKNTLYLQMNSLRAEDTAVYYCARDFYHNWFDPWGQGTLVTVSS VL: NFMLTQPHSVSESPGKTVTISCTGSSGSIASNYVQWYQQRPGSAPTTVIYEDNQRPSGVPDRFSGSIDRSSNSASLTISGLKTEDEADYYCQSYDSGNHWVVFGGGTRLTVL :: > 1 µg/mL

Specify measured EC50 for C135 (antibody, V domains shown) VH: QVQLVESGGGVVQPGRSLRLSCAASGFTFSSYAMHWVRQAPGKGLEWVAVIPFDGRNKYYADSVTGRFTISRDNSKNTLYLQMNSLRAEDTAVYYCASSSGYLFHSDYWGQGTLVTVSS VL: DIQMTQSPSTLSASVGDRVTITCRASQSISNWLAWFQQKPGKAPKLLIYEASSLESGVPSRFSGSGSGTEFTLTISSLQPDDFATYYCQQYNSYPWTFGQGTKVEIK . > 1 µg/mL
